Experiment: Pharmacokinetics in rats after oral administration of F18
Format: in vivo, Sprague-Dawley rats
Details: Sprague-Dawley; rat blood, oral F18 50 mg/kg, mean ± SD, n = 5
Description: To investigate the pharmacokinetic characteristics of F18 and its major metabolites, five rats were intragastrically administered F18 at a dose of 50 mg/kg. […] The blood concentrations of F18 and its major metabolites were determined by LC-MS/MS and their pharmacokinetic parameters were calculated through non-compartmental analysis using WinNonlin Version 6.1 (Pharsight, Mountain View, CA, USA). […]
measured.property: Cmax (nM)
Give bare numbers, in nM.

CCCc1cc(=O)oc2c3c(c4c(c12)OC(C)(C)C=C4)O[C@H](CCl)C[C@H]3O (relative stereo) [Metabolite M3-1, trans-12-hydroxy F18]; 165
CCCc1cc(=O)oc2c3c(c4c(c12)OC(C)(C)C=C4)OC(CCl)CC3=O (stereo not shown) [Metabolite F18]; 443
CCCc1cc(=O)oc2c3c(c4c(c12)OC(C)(C)C=C4)O[C@H](CCl)C[C@@H]3O (relative stereo) [Metabolite M3-2, cis-12-hydroxy F18]; 219

Okay, now this compound:
Lab note: measured Cmax of CCCc1cc(=O)oc2c3c(c4c(c12)OC(C)(C)C=C4)OC(CO)CC3=O (stereo not shown) [Metabolite M1] was 274

----------
Test system: CYP3A4
Assay: Microsomal incubations of F18 with chemical inhibitors of CYPs or thermal inactivation of FMOs
Conditions: human, human liver microsomes, probe F18 (10 μM); formation of metabolite M1
measured.property: inhibition at 30 min, 1 μM

Lab note: measured inhibition at 30 min, 1 μM of CC(=O)N1CCN(c2ccc(OCC3COC(Cn4ccnc4)(c4ccc(Cl)cc4Cl)O3)cc2)CC1 (stereo not shown) was 20 to 30%

----------
Tested on: monkey liver microsomes
Assay: Incubation of F18 with monkey liver microsomes, metabolite profiling
Type: in vitro ADME
Set-up: key: +: Metabolite detected; −: metabolite not detected
Settings: F18 50 μM, 1 h
measured.property: F18 metabolite detected in MLM

CCCc1cc(=O)oc2c3c(c4c(c12)OC(C)(C)C=C4)O[C@H](CCl)C[C@H]3O (relative stereo) [Metabolite M3-1, trans-12-hydroxy F18]; +
CCCc1cc(=O)oc2c3c(c4c(c12)OC(C)(C)C=C4)O[C@H](CCl)C[C@@H]3O (relative stereo) [Metabolite M3-2, cis-12-hydroxy F18]; +
CCCc1cc(=O)oc2c3c(c4c(c12)OC(C)(C)C=C4)OC(CO)CC3=O (stereo not shown) [Metabolite M1]; +
CC=Cc1cc(=O)oc2c3c(c4c(c12)OC(C)(C)C=C4)OC(CCl)CC3=O (stereo not shown) [Metabolite M2-9]; −

----------
Test: Pharmacokinetics in rats after oral administration of F18
Assay type: in vivo, Sprague-Dawley rats
Conditions: Sprague-Dawley; rat blood, oral F18 50 mg/kg, mean ± SD, n = 5
Procedure: To investigate the pharmacokinetic characteristics of F18 and its major metabolites, five rats were intragastrically administered F18 at a dose of 50 mg/kg. […] The blood concentrations of F18 and its major metabolites were determined by LC-MS/MS and their pharmacokinetic parameters were calculated through non-compartmental analysis using WinNonlin Version 6.1 (Pharsight, Mountain View, CA, USA). […]
For each record, write down the corresponding half-life.
Give the figure together with its unit, number first.

Worked examples follow.
CCCc1cc(=O)oc2c3c(c4c(c12)OC(C)(C)C=C4)OC(CO)CC3=O (stereo not shown) [Metabolite M1]; 4.8 h
CCCc1cc(=O)oc2c3c(c4c(c12)OC(C)(C)C=C4)O[C@H](CCl)C[C@H]3O (relative stereo) [Metabolite M3-1, trans-12-hydroxy F18]; 3.4 h

The following compounds each have a reported value; give each one's half-life.
1. CCCc1cc(=O)oc2c3c(c4c(c12)OC(C)(C)C=C4)OC(CCl)CC3=O (stereo not shown) [Metabolite F18]
2. CCCc1cc(=O)oc2c3c(c4c(c12)OC(C)(C)C=C4)O[C@H](CCl)C[C@@H]3O (relative stereo) [Metabolite M3-2, cis-12-hydroxy F18]

["5.3 h", "3 h"]
